System: 138582-337-R-J1-PDC complex spheroid viability
Assay: Anticancer human tumor 138582-337-R-J1-PDC patient-derived Merkel cell tumor cell line growth inhibition
Details: second compound 1 µM; first compound 0.949 µM; active compounds read low
Excerpt: Multicellular complex tumor spheroid response to LSD1 Inhibitor Iadademstat in combination with a variety of drugs and investigational agents in selected tumor cell lines The current study was undertaken to assess response to LSD1 inhibitors in combination with standard-of-care drugs and investigational agents in solid tumor complex spheroid models as well as in the K-562 leukemia. […] Compounds. […] If the clinical Cmax for an agent had not been determined, the highest concentration tested was 10 microM. […]
METRIC_NAME: viability, T/C (%)
Provide the reading as a plain figure in %.

The examples below pair each entry with its known result.
MOLECULE	METRIC_NAME	ASSAY_RESULT
O=C(C=Cc1cccc(S(=O)(=O)Nc2ccccc2)c1)NO + NC1CC1c1ccc(-c2cccc(O)c2)cc1	viability, T/C	0.46
CCN(c1cc(-c2ccc(CN3CCOCC3)cc2)cc(C(=O)NCc2c(C)cc(C)[nH]c2=O)c1C)C1CCOCC1 + NC1CCC(NC2CC2c2ccccc2)CC1	viability, T/C	97.7
COc1cc(C2c3cc4c(cc3C(OC3OC5COC(C)OC5C(O)C3O)C3COC(=O)C23)OCO4)cc(OC)c1O (configuration not stated) + NC1CC1c1ccc(-c2cccc(O)c2)cc1	viability, T/C	45
Nc1ccccc1NC(=O)c1ccc(CNC(=O)OCc2cccnc2)cc1 + NC1CC1c1ccc(-c2cccc(O)c2)cc1	viability, T/C	6.82
O=C(C=Cc1cccc(S(=O)(=O)Nc2ccccc2)c1)NO + NC1CCC(NC2CC2c2ccccc2)CC1	viability, T/C	34.1
Nc1ccccc1NC(=O)c1ccc(CNC(=O)OCc2cccnc2)cc1 + NC1CCC(NC2CC2c2ccccc2)CC1	viability, T/C	53.5

Now take the following molecule into account.
Under 138582-337-R-J1-PDC complex spheroid viability: viability, T/C value of COc1cc(C2c3cc4c(cc3C(OC3OC5COC(C)OC5C(O)C3O)C3COC(=O)C23)OCO4)cc(OC)c1O (configuration not stated) + NC1CCC(NC2CC2c2ccccc2)CC1 ? 94.1

###

# key: entry, value: viability, T/C
system: 138582-337-R-J1-PDC complex spheroid viability; assay: Anticancer human tumor 138582-337-R-J1-PDC cell line growth inhibition; settings: second compound 0.1 µM; first compound 0.03 µM; active compounds read low;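 note: spheroids exposed to agents for 7 days; 100% = DMSO vehicle control viability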
A number alone suffices; assume %.

Examples with answers:
COMPOUND	METRIC_NAME	ASSAY_RESULT
CCN(c1cc(-c2ccc(CN3CCOCC3)cc2)cc(C(=O)NCc2c(C)cc(C)[nH]c2=O)c1C)C1CCOCC1 + NC1CCC(NC2CC2c2ccccc2)CC1	viability, T/C	87.9
Nc1ncn(C2CC(O)C(CO)S2)c(=O)n1 (configuration not stated) + NC1CC1c1ccc(-c2cccc(O)c2)cc1	viability, T/C	73
CCc1c2c(nc3ccc(O)cc13)-c1cc3c(c(=O)n1C2)COC(=O)[C@]3(O)CC + NC1CC1c1ccc(-c2cccc(O)c2)cc1	viability, T/C	0.24

Looking for the measured viability, T/C of O=C(C=Cc1cccc(S(=O)(=O)Nc2ccccc2)c1)NO + NC1CCC(NC2CC2c2ccccc2)CC1 , can you help? 90.2

Repeat with CCc1c2c(nc3ccc(O)cc13)-c1cc3c(c(=O)n1C2)COC(=O)[C@]3(O)CC + NC1CCC(NC2CC2c2ccccc2)CC1 18.6

Then this compound: Nc1ccn(C2OC(CO)C(O)C2(F)F)c(=O)n1 (configuration not stated) + NC1CC1c1ccc(-c2cccc(O)c2)cc1 59

Lookup Nc1ccccc1NC(=O)c1ccc(CNC(=O)OCc2cccnc2)cc1 + NC1CCC(NC2CC2c2ccccc2)CC1 81.7

Next: Nc1ccccc1NC(=O)c1ccc(CNC(=O)OCc2cccnc2)cc1 + NC1CC1c1ccc(-c2cccc(O)c2)cc1 72.7

CCN(c1cc(-c2ccc(CN3CCOCC3)cc2)cc(C(=O)NCc2c(C)cc(C)[nH]c2=O)c1C)C1CCOCC1 + NC1CC1c1ccc(-c2cccc(O)c2)cc1 , same question. 69.5

And then NS(=O)(=O)OCC1CC(n2ccc3c(NC4CCc5ccccc54)ncnc32)CC1O (configuration not stated) + NC1CCC(NC2CC2c2ccccc2)CC1 , what is it? 114

Ok, now COc1cc(C2c3cc4c(cc3C(OC3OC5COC(C)OC5C(O)C3O)C3COC(=O)C23)OCO4)cc(OC)c1O (configuration not stated) + NC1CC1c1ccc(-c2cccc(O)c2)cc1 72.3

Please give the result for COc1cc(C2c3cc4c(cc3C(OC3OC5COC(C)OC5C(O)C3O)C3COC(=O)C23)OCO4)cc(OC)c1O (configuration not stated) + NC1CCC(NC2CC2c2ccccc2)CC1 too. 89.8

Origin of the recorded values: PubChem BioAssay AID1918931
